This collection of values is drawn from PubChem BioAssay AID504834.

# TEST_SUMMARY: Primary qHTS for delayed death inhibitors of the malarial parasite plastid, 96 hour incubation
# EXPERIMENTAL_SETUP: P. falciparum luciferase reporter growth; series mostly up to 28.7 µM
Among all 320,000 compounds or so, about 22,000 (6.9%) were called active. Another 27% or so got no clear call; they are omitted. Calls come from the whole dose curve; as a rule, active = well fitted inhibition curve with a large enough effect; inconclusive = small, poorly fitted or top-dose-only effect, or another doubt; inactive = no such curve, though single readings can be large or run the other way. The full list was thinned out, with actives kept by preference.
One label from this list, please: label 1 (active), label 0 (inactive)

Illustrative cases are given below, each with its answer.
How did this test come out for `Cn1c(=O)c2c(nc(SCCNS(=O)(=O)c3ccccc3)n2C)n(C)c1=O` ?
label 1

Outcome logged for `O=C(c1cc2cc(F)ccc2[nH]1)N1CCN(c2ccc(F)cc2)CC1` in this assay:
label 0

For `O=C(C1CCN(S(=O)(=O)c2ccc(Br)s2)CC1)N1CCN(c2ccccc2)CC1` , which call appears in the assay record?
label 0

GET /call?item= `CCCn1cc(SCC(N)=O)c2ccccc21` returns the recorded outcome of this test.
label 0

Can you look up the reported call for CCOC(=O)C1(Cc2ccccc2C)CCCN(C(=O)CCc2c(C)noc2C)C1 (centres undefined) for me?
label 1

Identify the outcome logged in this assay for the molecule shown: COc1ccc(NC(=O)/C(Cl)=C(/Cl)S(=O)Cc2ccc(C)cc2)cn1 (centres undefined)
label 0

Would you mind telling me which call this test gave `COc1cccc(Cn2cnc3c([N+](=O)[O-])c(C)c(C)cc32)c1` ?
label 0

State the result this test recorded for `O=C(NCc1ccccn1)c1c(O)c2c([nH]c1=O)CCCC2` .
label 1

Hi, sorry to bother you, what did the test record for `O=C(Nc1cccc(F)c1)NC1CCCCCCC1` ?
label 0

Call for entry `COc1ccccc1-c1nn(Cc2ccccc2)cc1C(=O)N1CCN(c2ncccn2)CC1` :
label 1

New cases:
Which outcome did this test record for the molecule `Cc1cccc(Cn2cnc3c(N)c(C)c(C)cc32)c1` ?
label 1

Check the results log: what was the call for `Cc1ccc(-n2ncc3c(=O)[nH]cnc32)c(C)c1` ?
label 1

Please indicate how the test categorized CCOC(=O)C1(Cc2cccc(OC)c2)CCCN(C(=O)CCSC)C1 (centres undefined) .
label 1

How was `COc1cccc(NC(=O)CSc2nnc(-c3cccnc3)o2)c1` classified in this test?
label 0

Write down the call the test reported for this molecule. Item: `COCCn1c(N)c(NCc2ccccc2)c(=O)[nH]c1=O`
label 0

# outcome recorded in this test, key = `CCOC(=O)C1(Cc2cccc(OC)c2)CCN(Cc2csc(C(C)=O)c2)CC1`
label 0

Just curious, what result did `CCCSc1nc2c(c(=O)n(C)c(=O)n2C)n1Cc1ccc(C)cc1` get here?
label 1

I'd appreciate the recorded outcome for `CC(C)c1c(O)nc(SCCOc2ccc(Cl)cc2)[nH]c1=O` from this test.
label 0

Hi, do you know how `CN(C)C(=O)c1nc2ccc(Cl)cn2c1CNCc1cccc(OC(F)(F)F)c1` came out in this test?
label 0

Dear colleague, could you share the recorded outcome for `COc1cccc(NC(=O)c2nn(C34CC5CC(CC(C5)C3)C4)cc2[N+](=O)[O-])c1` when you have a moment?
label 1

Returns: the outcome recorded for CCOC(=O)C1(Cc2ccccc2C)CCCN(S(C)(=O)=O)C1 (centres undefined) in this assay.
label 0

Assay outcome for `Cc1ccc(N2CCN(c3ccc([N+](=O)[O-])cn3)CC2)c(C)c1` : what was it?
label 0

Recorded test outcome, item CCOC(=O)C1(Cc2cccc(OC)c2)CCN(C(C)CC(C)(C)O)CC1 (centres undefined)
label 0
